- Tested on: Serratia marcescens
- test.description: Antibacterial activity against Serratia marcescens PTCC 1111 after 18 hrs
- Type: functional
assay.endpoint: MIC

>>> result("COc1ccc(C(=O)CN2CCN(c3c(F)cc4c(=O)c(C(=O)O)cn5c4c3OC[C@@H]5C)CC2)cc1")
"4 µg/mL"
>>> result("C[C@H]1COc2c(N3CCNCC3)c(F)cc3c(=O)c(C(=O)O)cn1c23")
"1 µg/mL"
>>> result("C[C@H]1COc2c(N3CCN(C/C(=N\\O)c4ccccc4)CC3)c(F)cc3c(=O)c(C(=O)O)cn1c23")
"> 4 µg/mL"
>>> result("C[C@H]1COc2c(N3CCN(C/C(=N\\O)c4ccc(Cl)cc4)CC3)c(F)cc3c(=O)c(C(=O)O)cn1c23")
"> 4 µg/mL"
>>> result("C[C@H]1COc2c(N3CCN(CC(=O)c4ccc(Cl)cc4)CC3)c(F)cc3c(=O)c(C(=O)O)cn1c23")
"4 µg/mL"
>>> result("COc1ccc(/C(CN2CCN(c3c(F)cc4c(=O)c(C(=O)O)cn5c4c3OC[C@@H]5C)CC2)=N/O)cc1")
"> 4 µg/mL"
>>> result("C[C@H]1COc2c(N3CCN(C/C(=N\\O)c4ccc(F)cc4)CC3)c(F)cc3c(=O)c(C(=O)O)cn1c23")
"> 4 µg/mL"
>>> result("C[C@H]1COc2c(N3CCN(CC(=O)c4ccc(Cl)cc4Cl)CC3)c(F)cc3c(=O)c(C(=O)O)cn1c23")
"> 4 µg/mL"
>>> result("Cc1ccc(C(=O)CN2CCN(c3c(F)cc4c(=O)c(C(=O)O)cn5c4c3OC[C@@H]5C)CC2)cc1")
"> 4 µg/mL"
>>> result("C[C@H]1COc2c(N3CCN(C/C(=N\\O)c4ccc(Br)cc4)CC3)c(F)cc3c(=O)c(C(=O)O)cn1c23")
"> 4 µg/mL"
>>> result("Cc1ccc(/C(CN2CCN(c3c(F)cc4c(=O)c(C(=O)O)cn5c4c3OC[C@@H]5C)CC2)=N/O)cc1")
"> 4 µg/mL"
>>> result("C[C@H]1COc2c(N3CCN(C/C(=N\\O)c4ccc(Cl)cc4Cl)CC3)c(F)cc3c(=O)c(C(=O)O)cn1c23")
"> 4 µg/mL"
>>> result("C[C@H]1COc2c(N3CCN(C/C(=N\\OCc4ccccc4)c4ccccc4)CC3)c(F)cc3c(=O)c(C(=O)O)cn1c23")
"> 4 µg/mL"
>>> result("C[C@H]1COc2c(N3CCN(CC(=O)c4ccc(Br)cc4)CC3)c(F)cc3c(=O)c(C(=O)O)cn1c23")
"4 µg/mL"
>>> result("C[C@H]1COc2c(N3CCN(C)CC3)c(F)cc3c(=O)c(C(=O)O)cn1c23.C[C@H]1COc2c(N3CCN(C)CC3)c(F)cc3c(=O)c(C(=O)O)cn1c23.O")
"0.5 µg/mL"
>>> result("C[C@H]1COc2c(N3CCN(CC(=O)c4ccc(F)cc4)CC3)c(F)cc3c(=O)c(C(=O)O)cn1c23")
"> 4 µg/mL"
>>> result("C[C@H]1COc2c(N3CCN(CC(=O)c4ccccc4)CC3)c(F)cc3c(=O)c(C(=O)O)cn1c23")
"4 µg/mL"

The reported numbers originate from ChEMBL document CHEMBL1147210.
